# targetUnderTest: T1, human ubiquitin (human, UniProt P0CG48 1-76)
# T1 construct: human ubiquitin, the cut product of the ubiquitin precursors; shifts were mapped on PDB 1D3Z; also called UBQ; mono-UBQ; source: 15N- or 15N/13C-labelled where observed by NMR
# experimentalProtocol: NMR titration; 15N-labelled UBQ (0.1 mM) with unlabelled peptide; 15N/1H-HSQC chemical shift perturbation; 50 mM sodium phosphate, pH 6.0 and pH 7.4, 25 °C; 1:1 model for the Kd
# experimentalParameters: both partners purified
pKd: −log10 of the molar value. No end group written: not given here.
observable: pKd

Consider EEIADQELAEALQKSAEDAE-NH2 (Dissolved in DMSO before use; also called C-terminal hDdi2 UIM peptide; source: synthetic peptide (solid phase, HPLC purified)) [hDdi2-UIM peptide] . Its measured pKd is 2.49 to 2.66
